# SYSTEM: Mu-type opioid receptor (Rattus norvegicus)
# Sequence (P33535 whole entry): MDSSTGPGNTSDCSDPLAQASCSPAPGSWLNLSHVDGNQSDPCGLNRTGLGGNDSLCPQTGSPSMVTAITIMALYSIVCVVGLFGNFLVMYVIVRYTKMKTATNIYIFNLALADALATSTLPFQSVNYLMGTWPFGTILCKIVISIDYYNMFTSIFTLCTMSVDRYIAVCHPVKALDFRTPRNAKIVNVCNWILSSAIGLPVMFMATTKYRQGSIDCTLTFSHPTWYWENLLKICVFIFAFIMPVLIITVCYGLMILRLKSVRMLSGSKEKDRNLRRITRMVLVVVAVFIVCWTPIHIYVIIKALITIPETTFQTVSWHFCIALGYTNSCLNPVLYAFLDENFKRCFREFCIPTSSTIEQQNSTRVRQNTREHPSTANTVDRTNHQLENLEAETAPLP
# METHOD: Displacement of [3H]DAMGO from mu opioid receptor in rat synaptosomes P2 fraction
pKi: −log10 of the molar value.
RECORDED METRIC: pKi

# SMILES RECORD, SYSTEM, RECORDED METRIC, OBSERVED VALUE
measured = [
    ("Cc1nc(CCCCNC(=O)[C@@H](N)Cc2ccc(O)cc2)c(=O)[nH]c1CCCNC(=O)[C@@H](N)Cc1ccc(O)cc1", "Mu-type opioid receptor (Rattus norvegicus)", "pKi", 8.12),
    ("Cc1cc(O)cc(C)c1C[C@H](N)C(=O)NCCCCc1nc(C)c(CCCNC(=O)[C@@H](N)Cc2c(C)cc(O)cc2C)[nH]c1=O", "Mu-type opioid receptor (Rattus norvegicus)", "pKi", 10.68),
    ("Cc1cc(O)cc(C)c1C[C@H](N)C(=O)NCCCCc1[nH]c(=O)c(CCCNC(=O)[C@@H](N)Cc2c(C)cc(O)cc2C)nc1C", "Mu-type opioid receptor (Rattus norvegicus)", "pKi", 10.29),
    ("Cc1nc(CCCNC(=O)[C@@H](N)Cc2ccc(O)cc2)c(=O)[nH]c1CCCCNC(=O)[C@@H](N)Cc1ccc(O)cc1", "Mu-type opioid receptor (Rattus norvegicus)", "pKi", 7.56),
]

====

# SYSTEM: Delta-type opioid receptor (Mus musculus)
# Sequence (P32300 whole entry): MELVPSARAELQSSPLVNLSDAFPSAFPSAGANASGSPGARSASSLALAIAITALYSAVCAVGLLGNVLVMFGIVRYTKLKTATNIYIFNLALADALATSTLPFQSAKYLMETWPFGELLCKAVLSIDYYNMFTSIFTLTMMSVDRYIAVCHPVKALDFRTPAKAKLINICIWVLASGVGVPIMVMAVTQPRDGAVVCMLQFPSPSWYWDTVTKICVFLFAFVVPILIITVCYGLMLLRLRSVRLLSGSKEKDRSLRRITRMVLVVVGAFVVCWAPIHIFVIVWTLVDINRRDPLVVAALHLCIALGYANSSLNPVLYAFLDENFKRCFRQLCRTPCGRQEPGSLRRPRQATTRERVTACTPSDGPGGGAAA
# METHOD: Activity at delta opioid receptor assessed as inhibition of muscle contraction in mouse vas deferens assay
# Assay type: functional, tissue-based

# SMILES RECORD, UNITS LABEL, RELATION SYMBOL, IC50
rows = [
    ("Cc1cc(O)cc(C)c1C[C@H](N)C(=O)NCCCCc1nc(C)c(CCCNC(=O)[C@@H](N)Cc2c(C)cc(O)cc2C)[nH]c1=O", "nM", "=", 25.8),
    ("Cc1cc(O)cc(C)c1C[C@H](N)C(=O)NCCCCc1[nH]c(=O)c(CCCNC(=O)[C@@H](N)Cc2c(C)cc(O)cc2C)nc1C", "nM", ">", 10000),
]
